Value source: ChEMBL document CHEMBL1201862

test system: SNB-19; test: NCI tumour cell line growth inhibition, 48 h
Activity calls are given as the source filed them. No stated cut-off is given here; in the data, active = GI50 up to about 1.1 µM and inactive = higher.
parameter.measured: GI50

response.value for CC1=CC(=O)C(C)(C2=NC(C)(C)CO2)c2ccccc21 (stereo unspecified) (field: GI50) = > 100 µM (inactive)

response.value for N/N=C1N=C(Cl)/C(=C/c2ccco2)N\1 (field: GI50) = 50.5 µM (inactive)

response.value for N=C(N)SCc1ccc2c(c1)Sc1ccccc1O2 (field: GI50) = 11.4 µM (inactive)

response.value for CC(=O)c1sc(Nc2nnc(-c3ccc(-c4nnc(Nc5nc(C)c(C(C)=O)s5)o4)cc3)o2)nc1C (field: GI50) = > 100 µM (inactive)

response.value for N=c1oc2cc(O)ccc2cc1C(=O)Nc1cccc2ccccc12 (field: GI50) = 4.68 µM (inactive)

response.value for N#CCCC1(CCC#N)CCCCCCC(CCC#N)(CCC#N)C(=O)C1=O (field: GI50) = > 100 µM (inactive)

----------
tested on: ACHN; experiment: NCI tumour cell line growth inhibition, 48 h
Activity calls are given as the source filed them. No stated cut-off is given here; in the data, active = GI50 up to about 1.1 µM and inactive = higher.
parameter.measured: GI50

response.value for COc1cc(/C=C2\C[C@H]3[C@@H]4CC=C5C[C@@H](OC(C)=O)CC[C@]5(C)[C@H]4CC[C@]3(C)\C2=N\O)cc(OC)c1OC (field: GI50) = 3.75 µM (inactive)

response.value for CCNc1cc2c3c(c1)CCCN3CCC2 (field: GI50) = 19.6 µM (inactive)

response.value for Cc1ccc(C)c(/C(=N\N=C(N)N)C2CC2)c1 (field: GI50) = 42.7 µM (inactive)

response.value for O=C1C(Cl)=C(Cl)C(=O)N1C1C2CC3CC(C2)CC1C3 (stereo not given) (field: GI50) = > 100 µM (inactive)

response.value for C1CN(P2(N3CC3)=NP(N3CC3)(N3CC3)=NP(N3CC3)(N3CC3)=N2)CCO1 (stereo not given) (field: GI50) = 37.5 µM (inactive)

response.value for Cc1cc(N)c2cc(NC(=O)Nc3ccc4nc(C)cc(N)c4c3)ccc2n1 (field: GI50) = > 100 µM (inactive)

response.value for O=C(O)C1c2ccccc2C(C(=O)O)c2ccccc21 (stereo not given) (field: GI50) = > 100 µM (inactive)

response.value for COC(=O)C1=NN2c3ccccc3C(=O)OCCC2C1 (stereo not given) (field: GI50) = > 100 µM (inactive)

response.value for O=C1C=C(C2=C(C3=CC(=O)c4ccccc4C3=O)C(=O)c3ccccc3C2=O)C(=O)c2ccccc21 (field: GI50) = 17.9 µM (inactive)

response.value for C[C@]12CC[C@H](O)CC1=CC[C@@H]1[C@@H]2CC[C@]2(C)C(=O)[C@@H](N3CCOCC3)C[C@@H]12 (field: GI50) = > 100 µM (inactive)

response.value for COC(=O)C[C@H](COCc1ccccc1)NC(=O)C[C@H](COCc1ccccc1)NC(=O)C[C@H](COCc1ccccc1)NC(=O)OC(C)(C)C (field: GI50) = 80.9 µM (inactive)

response.value for C/C(=N\Nc1nc2ccccc2[nH]1)c1ccc2ccccc2n1 (field: GI50) = 3.15 µM (inactive)

response.value for CN(C)c1cccc(NC2=NCCO2)c1 (field: GI50) = 90.4 µM (inactive)

response.value for C[C@@H]1OC(=O)C[C@H]2CC(=O)N(CCC3CN(C(=O)OCc4ccccc4)c4ccccc43)C[C@@H]21 (stereo not given in full) (field: GI50) = > 100 µM (inactive)

response.value for CCCC(CCC)C(=O)O (field: GI50) = 5450 µM (inactive)

response.value for N#CC(C#N)SCc1ccccc1 (field: GI50) = 40.4 µM (inactive)

response.value for N=c1oc2cc(O)ccc2cc1C(=O)Nc1cccc2ccccc12 (field: GI50) = 3.99 µM (inactive)

response.value for COc1ccc(CCc2nccn2C)cc1OC (field: GI50) = > 100 µM (inactive)

response.value for COc1ccc2[nH]c3c(c2c1)[C@H]1CCC(C(C)(C)C)C[C@H]1[C@H]1C(=O)N(c2ccccc2)C(=O)[C@@H]31 (stereo not given in full) (field: GI50) = 4.17 µM (inactive)

response.value for CCOC(=O)c1c2ccccc2n2c(=O)n(-c3ccc(OC)cc3)nnc12 (field: GI50) = 31.1 µM (inactive)

----------
system: SW-620; experiment: NCI tumour cell line growth inhibition, 48 h
Activity calls are given as the source filed them. Cut-off read from the data, not from the text of the source: active = GI50 up to about 1.1 µM and inactive = higher.
Allowed answers: True = active, False = inactive

q: What call does the record list for CCCCCCCCCCC/C=C(/C(=O)CCCO[Si](C)(C)C(C)(C)C)C(=O)OC ?
a: False

q: What call does the record list for O=C(CC1(O)C(=O)Nc2ccc(Br)cc21)c1cccc([N+](=O)[O-])c1 (stereo not drawn) ?
a: False

q: What call does the record list for Clc1ccc(Cl)c(SCCCN2CCNCC2)c1 ?
a: False

q: What call does the record list for CC1(O)CC(=O)c2c(cc3ccc(-c4c5c(c(O)c6c(O)cccc46)C(=O)CC(C)(O)C5)c(O)c3c2O)C1 (stereo not drawn) ?
a: True

q: What call does the record list for CC(=O)O[C@@H]1CC(C)C2CC2C2=C(C(O)OC2O)[C@@H]1C(C)CCC=C(C)C (stereo partly drawn) ?
a: False

q: What call does the record list for C/C(=C/CC[C@]1(CO)CC[C@]2(CO)[C@H](CC[C@@H]3[C@@]4(C)CC[C@H](OC5OCC(O)C(O)C5OC5OC(CO)C(O)C(O)C5O)C(C)(C)[C@@H]4CC[C@]32C)[C@H]1O)CO (stereo partly drawn) ?
a: False

q: What call does the record list for CC(=O)C1(Cc2cccc3ccccc23)S(=O)(=O)OCCOS1(=O)=O ?
a: False

q: What call does the record list for COC(=O)C1=Cc2cc(OC)c(OC)c(OC)c2[C@H](c2cc(OC)c(OC)c(OC)c2)C1C(=O)OC (stereo partly drawn) ?
a: False

----------
tested on: SF-268; experiment: NCI tumour cell line growth inhibition, 48 h
The source made the active and inactive calls. Rule as the data show it: active = GI50 up to about 1.1 µM and inactive = higher.
Kindly supply the reported GI50 values for the records listed here.

response.value for O=C1C2=C(c3ccccc31)C(c1ccccc1Cl)NC(S)=N2 (stereo not drawn) (field: GI50) = 51.5 µM (inactive)

response.value for CCc1nc(N)nc(N)c1-c1ccc(Cl)c(/N=N/N(C)C)c1 (field: GI50) = 49.2 µM (inactive)

response.value for CC1(C)C=Cc2c(cc3oc4ccc5c(c4c(=O)c3c2O)C=CC(C)(C)O5)O1 (field: GI50) = > 100 µM (inactive)

response.value for NCCSc1cc(O)c2c(c1N)C(=O)c1ccccc1C2=O (field: GI50) = 55.8 µM (inactive)

response.value for CCOc1cc(NC(C)=O)ccc1C(=O)NNS(=O)(=O)c1ccc(Cl)cc1Cl (field: GI50) = > 50 µM (inactive)

response.value for NNC(=S)N/N=C(\c1nc2ccc(Cl)cc2nc1O)C(O)c1cccc([N+](=O)[O-])c1 (stereo not drawn) (field: GI50) = > 52.1 µM (inactive)

response.value for CCOC(=O)COc1cc(-c2ccccc2)nc2cc(F)ccc12 (field: GI50) = > 100 µM (inactive)

response.value for NC1c2c(Br)sc(N3CCCC3)c2C(=O)C1O (stereo not drawn) (field: GI50) = > 50 µM (inactive)

response.value for Cc1cc(C)c2c(=O)cc(-c3ccccc3)[nH]c2c1 (field: GI50) = 7.82 µM (inactive)

response.value for CSc1sc(=S)sc1C(=O)N(C)c1ccccc1 (field: GI50) = > 100 µM (inactive)

response.value for Cc1ccc(-c2c(C#N)c(-c3ccc(Cl)cc3)c(C#N)c(=O)n2NS(=O)(=O)c2ccccc2)cc1 (field: GI50) = 67 µM (inactive)

response.value for O=C1C2C(C(=O)N1c1ccccc1)C1c3ccccc3C2C2C(=O)N(c3ccccc3)C(=O)C21 (stereo not drawn) (field: GI50) = 5.56 µM (inactive)

response.value for CCOC(=O)/C(C(=O)Nc1cccc(Cl)c1)=C(/N)N1CCCC1 (field: GI50) = > 100 µM (inactive)

response.value for O=[N+]([O-])C(=C(N1CCOCC1)N1CCOCC1)/C(Cl)=C(\Cl)Br (field: GI50) = 23.6 µM (inactive)

response.value for CC(Nc1cccc(Cl)c1)c1ccncc1 (stereo not drawn) (field: GI50) = > 100 µM (inactive)

response.value for CC1OC(=O)C2CC3CCCCC3C(/C=C/C3CCCC(C)N3C)C12 (stereo not drawn) (field: GI50) = > 100 µM (inactive)

response.value for COC(=O)[C@]1(C)CCC[C@@]2(C)C1CC[C@]13C=C(C(C)C)[C@H](CC21)CC3(Cl)C#N (stereo partly drawn) (field: GI50) = 46.3 µM (inactive)

response.value for CCN(CC)CCN(C)CCc1ccc(Br)cc1 (field: GI50) = > 100 µM (inactive)

response.value for COc1ccc(-c2ccccc2)c(N/N=C2\CCCNC2=O)c1 (field: GI50) = 43.5 µM (inactive)

response.value for O=[N+]([O-])c1ccc(/N=N/c2c(O)ccc3cc(S(=O)(=O)O)ccc23)cc1 (field: GI50) = > 100 µM (inactive)

response.value for O=C1OC(c2ccccc2)=N/C1=C/NC(Cc1c[nH]c2ccccc12)C(=O)O (stereo not drawn) (field: GI50) = > 100 µM (inactive)

response.value for O=C(O)CC1(CC(=O)O)Nc2ccccc2SC1=O (field: GI50) = > 100 µM (inactive)

response.value for NC1CC(Cl)c2c(Cl)sc(Cl)c21 (stereo not drawn) (field: GI50) = > 100 µM (inactive)
